Method: chemical genetic growth profiling, strain panel (AID 1159580);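 note: tested at 20 µM; growth read once vehicle control cultures reached saturation at 30 °C; 1 = growth at the plate median or of vehicle wells; lower values mean less growth of the strain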
Condition parameters: S. cerevisiae deletion strains, growth OD, locus YNL209W, strain ssb2, stronger effect = lower value
Out of some 5,500 compounds screened, about 2,000 (36%) were called active. Another 18% or so got no clear call; they are omitted. The list shows a part of the results.
Provide the reported normalized growth of each item.
One number for each entry.

{"columns": ["Compound", "Reported"],
 "data": [
  ["CC(C)CCCC(C)C1CCC2C3CC(=O)[C@H]4C[C@@H](O)CC[C@]4(C)C3CC[C@]12C (some centres not stated)", 1.01],
  ["CN1CCN(C(=O)OC2c3nccnc3C(=O)N2c2ccc(Cl)cn2)CC1 (configuration not stated)", 1.01],
  ["COc1ccc([C@@H]2CC(=O)c3c(O)cc(O[C@@H]4O[C@H](CO[C@H]5O[C@@H](C)[C@H](O)[C@@H](O)[C@H]5O)[C@@H](O)[C@H](O)[C@H]4O)cc3O2)cc1O", 0.978],
  ["COC(=O)c1c(OC)cc2c(c1C)Oc1c(Cl)c(OC(C)=O)c(Cl)c(C)c1C(=O)O2", 1.01],
  ["CC(C)CCCC(C)[C@H]1CCC2C3CC=C4C[C@@H](O)CC[C@]4(C)C3CC[C@@]21C (some centres not stated)", 0.98],
  ["CC(C)CCCC(C)[C@H]1CCC2C3CC=C4CC(=O)CC[C@]4(C)C3CC[C@@]21C (some centres not stated)", 1],
  ["Cc1cc(=O)oc2cc(O)c(O)cc12", 1],
  ["NS(=O)(=O)c1cc2c(cc1Cl)NC(CSCc1ccccc1)=NS2(=O)=O", 1],
  ["CO[C@H]1CC(O[C@@H]2/C(C)=C/C[C@@H]3C[C@@H](C[C@]4(CC[C@H](C)[C@@H](C5CCCCC5)O4)O3)OC(=O)[C@@H]3C=C(C)/C(=N\\O)[C@H]4OC/C(=C\\C=C\\[C@@H]2C)[C@]43O)O[C@@H](C)C1O (some centres not stated)", 0.977],
  ["COC(=O)c1c(OC)cc2c(c1C)Oc1c(Cl)c(O)c(Cl)c(C)c1C(=O)O2", 0.996]
]}

Hi, could you look up normalized growth for each item in my list?
1. Cc1cn[nH]c1
2. NC1=NCCN1CC(=O)O
3. CC(C)CCCC(C)C1CCC2C3=CC[C@H]4C[C@@H](O)CC[C@]4(C)C3CC[C@@]21C (some centres not stated)
4. COC(=O)c1c(C)c2c(c(C)c1O)OC(=O)c1c(C)c(Cl)c(O)c(Cl)c1O2
5. CN(C)[C@@H]1C(=O)C(C(N)=O)=C(O)[C@@]2(O)C(=O)C3=C(O)c4c(O)cccc4[C@@](C)(O)[C@H]3[C@H](O)[C@@H]12
6. C/C1=C/CC(C)(C)/C=C/C/C(C)=C/CC1
7. CC(=O)Nc1ccc(S(=O)(=O)Nc2onc(C)c2C)cc1

[1.02, 1.03, 0.987, 0.991, 1.01, 1, 0.975]

----------
Method: chemical genetic growth profiling, strain panel (AID 1159580);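 note: tested at 20 µM; growth read once vehicle control cultures reached saturation at 30 °C; 1 = growth at the plate median or of vehicle wells; lower values mean less growth of the strain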
Condition parameters: S. cerevisiae deletion strains, growth OD, locus YLR102C, strain apc9
Among all 5,500 compounds or so, about 2,000 (36%) were called active. Another 18% or so got no clear call; they are omitted. Rule as the data show it: active = normalized growth mostly below about 0.91 (no sharp cut-off); inconclusive = no clear call, values can overlap the other calls; inactive = mostly above about 0.92. Some of the results follow.
Valid outcomes are listed here; reply with one: active, inactive

Recorded results for 3 molecules are shown here.
{"columns": ["Molecule", "Label value"],
 "data": [
  ["OC[C@H]1O[C@@H](O[C@H]2[C@H](O)[C@@H](O)[C@@H](O)O[C@@H]2CO)[C@H](O)[C@@H](O)[C@@H]1O", "inactive"],
  ["CC1=CC(=O)c2ccccc2C1=O", "active"],
  ["C/C1=C/CC(C)(C)/C=C/C/C(C)=C/CC1", "inactive"]
]}

For this molecule, state the assay outcome: CN[C@@H]1[C@H](O)[C@H](NC)[C@H]2O[C@@]3(O)C(=O)C[C@@H](C)O[C@H]3O[C@@H]2[C@H]1O
inactive

For this molecule, state the assay outcome: COc1ccc2cc(CCC(C)=O)ccc2c1
inactive

For this molecule, state the assay outcome: CN(C)C1C(=O)C(C(N)=O)=C(O)C2(O)C(=O)C3=C(O)c4c(O)ccc(Cl)c4C(C)(O)C3CC12 (configuration not stated)
inactive

For this molecule, state the assay outcome: Cc1cc(=O)[nH]c(=S)[nH]1
inactive
